- Target Desc: T1, MotA K28E, full length (bacteriophage T4, UniProt P22915 1-211, K28E)
- T1 sequence (looked up): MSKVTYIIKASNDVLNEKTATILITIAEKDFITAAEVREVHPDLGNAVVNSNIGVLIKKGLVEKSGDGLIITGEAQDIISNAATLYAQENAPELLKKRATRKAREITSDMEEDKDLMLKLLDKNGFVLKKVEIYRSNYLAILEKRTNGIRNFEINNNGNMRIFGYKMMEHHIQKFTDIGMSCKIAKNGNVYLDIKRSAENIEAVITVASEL
- Measurement Description: fluorescence polarisation
pKd: −log10 of the molar value. Where no end group is shown, it is not given here. The star is where a group is joined. FITC = O=C1OC2(c3ccc(O)cc3Oc3cc(O)ccc32)c2ccc(NC(=S)*)cc21
Readout Label: pKd

Inquiry: Given the entry {FITC}-PSRSEVLRSFLDD (peptide, UniProt P00579 601-613, looked up) [fluorescein-tagged σ4-H5 peptide (σ^70 residues 601-613)] , report its measured pKd.
Reply text: < 3.52
